System: RARb:RXRa (NR concentration 270 nM, RXRa partner concentration 90 nM)
Assay: PBM binding z-score (relative to random genomic background probes); higher = stronger binding; sequences stand for … in GC…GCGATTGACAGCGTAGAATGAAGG
# PBM binding z-score per entry
Reply: number alone, nothing else.

Return PBM binding z-score for the following sequence: `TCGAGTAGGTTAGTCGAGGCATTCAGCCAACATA`
-0.133

Return PBM binding z-score for the following sequence: `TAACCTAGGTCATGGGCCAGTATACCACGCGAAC`
4.08

Return PBM binding z-score for the following sequence: `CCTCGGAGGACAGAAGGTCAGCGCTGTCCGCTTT`
3.68

Return PBM binding z-score for the following sequence: `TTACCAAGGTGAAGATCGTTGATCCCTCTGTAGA`
1.26

Return PBM binding z-score for the following sequence: `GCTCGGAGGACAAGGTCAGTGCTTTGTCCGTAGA`
3.46

Return PBM binding z-score for the following sequence: `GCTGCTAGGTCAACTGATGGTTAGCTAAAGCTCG`
4.31

Source of measurements: the supplement of paper PMC6555819
